In this section we review reported composite z-score values for a set of molecules.
Assay: compound binding in COS7 lysate, probe aLAP1, primary screen, cell lysate, small-molecule microarray (AID 1124);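 note: lysate comes from COS7 cells expressing LAP1 and is applied at 0.3 µg/mL; score merges spot fluorescence near 667 nm with signal-to-noise over triplicate slides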
Conditions: probe aLAP1, fluorescence, higher = more signal
Enter the number alone.

Consider the following illustrative entries.
O=C1C2C=CC(C(O)CCc3ccccc3)N(Nc3ccccc3F)C2C(=O)N1c1ccccc1 (centres undefined)
0.185
COc1cc2c(cc1O)C(c1cccs1)N(C)CC2 (centres undefined)
-0.465
[N-]=[N+]=NCc1ccccc1[C@@H]1OC(c2ccc(OCCCO)cc2)=N[C@]1(Cc1ccccc1)C(N)=O
0.222
CCCC[C@H]1OB(O)C[C@H]2C1=C(COC)Cn1c(=O)n(-c3ccccc3)c(=O)n12
0.0521
C=C[C@@H](COC(=O)OC(C)(C)C)N(Cc1ccc(OC)cc1)S(=O)(=O)c1ccc(Br)cc1
-0.024

Ask: What does the data say about its composite z-score? Entry: CCCC[C@@H]1C[C@H]1[C@@H](NC(=O)c1ccco1)c1ccc(-c2ccccc2)cc1
Reply: -0.305

Ask: Data request, read-out composite z-score, for C=CC[C@@]1(C(=O)NCCN2CCOCC2)N=C(c2ccc(OCCCO)cc2)O[C@@H]1c1ccccc1N=[N+]=[N-]
Reply: 0.232

Ask: Item under review: CC(C)NC(=O)[C@@]1(c2ccc([N+](=O)[O-])cc2)CC(=O)N(C2CCCCC2)[C@@H]1c1ccc(CO)cc1I . Reported composite z-score?
Reply: 0.321

Ask: Record request: composite z-score value, item CCCC=C(CCC)[C@@H](NC(=O)c1cccs1)c1ccc(C(F)(F)F)cc1
Reply: 0.156

Provenance of the data: PubChem BioAssay
